The molecules listed here are annotated with their EC50.
Tested on: Semliki Forest virus
Method Summary: Antiviral activity against Semliki forest virus Vietnam infected in African green monkey Vero cells assessed as inhibition of virus-induced cell death after 6 to 7 days by MTS assay
Assay type: functional, organism-based
Observed Property: EC50 (µM)

[[record]]
molecule = "C=C1[C@H](OC(C)=O)[C@H]2[C@@H](OC(=O)c3ccccc3)[C@@H](C)C[C@]2(O)[C@H](O)[C@H](C)/C=C/C(C)(C)C(=O)[C@H](OC(=O)C(C)C)[C@H]1OC(C)=O"
observed_property = "EC50"
operator_symbol = "="
quantitative_readout = 20.5

[[record]]
molecule = "C=C1[C@H](OC(C)=O)[C@H]2[C@@H](OC(C)=O)[C@](C)(OC(C)=O)C[C@]2(OC(C)=O)C(=O)[C@H](C)/C=C/C(C)(C)C(=O)[C@H](OC(=O)/C(C)=C/C)[C@H]1OC(C)=O"
observed_property = "EC50"
operator_symbol = ">"
quantitative_readout = 145

[[record]]
molecule = "C=C1[C@H](OC(C)=O)[C@H]2[C@@H](OC(=O)c3ccccc3)[C@@H](C)C[C@]2(O)[C@H](OC(C)=O)[C@H](C)/C=C/C(C)(C)C(=O)[C@H](O)[C@H]1OC(C)=O"
observed_property = "EC50"
operator_symbol = ">"
quantitative_readout = 163

[[record]]
molecule = "C=C1[C@H](OC(C)=O)[C@H]2[C@@H](OC(=O)c3ccccc3)[C@@H](C)C[C@]2(O)[C@H](O)[C@H](C)/C=C/C(C)(C)C(=O)[C@H](OC(C)=O)[C@H]1OC(C)=O"
observed_property = "EC50"
operator_symbol = "="
quantitative_readout = 62

[[record]]
molecule = "C=C1[C@H](OC(C)=O)[C@H]2[C@@H](OC(=O)c3ccccc3)[C@@H](C)C[C@]2(O)[C@H](O)[C@H](C)/C=C/C(C)(C)C(=O)[C@H](OC(=O)C(C)CC)[C@H]1OC(C)=O (stereo not given in full)"
observed_property = "EC50"
operator_symbol = "="
quantitative_readout = 76


###

Method Summary: Cytotoxicity against human MT2 cells assessed as cell viability incubated for 2 weeks with every 48 to 72 hrs of compound washed out measured on day 2, 6, 10, 14 by CellTiter Glo luminescence assay
Format: cell-based
Observed Property: CC50 at 336 h

[[record]]
structure_notation = "C=C1[C@H](OC(C)=O)[C@H]2[C@@H](OC(C)=O)[C@](C)(OC(C)=O)C[C@]2(OC(C)=O)C(=O)[C@H](C)/C=C/C(C)(C)C(=O)[C@H](OC(C)=O)[C@H]1OC(C)=O"
observed_property = "CC50 at 336 h"
result = "> 100 µM"


###

Method Summary: Selectivity index, ratio of CC50 for African green monkey Vero cells to EC50 for Chikungunya virus 899 infected in African green monkey Vero cells
Assay type: toxicity, cell-based
Condition Info: read-out: Ratio CC50/EC50
Observed Property: selectivity ratio

[[record]]
structure_notation = "C=C1[C@H](OC(C)=O)[C@H]2[C@@H](OC(=O)c3ccccc3)[C@@H](C)C[C@]2(O)[C@H](O)[C@H](C)/C=C/C(C)(C)C(=O)[C@H](OC(=O)C(C)C)[C@H]1OC(C)=O"
operator_symbol = "="
quantitative_readout = 2.8

[[record]]
structure_notation = "C=C1[C@H](OC(C)=O)[C@H]2[C@@H](OC(C)=O)[C@](C)(OC(C)=O)C[C@]2(OC(C)=O)C(=O)[C@H](C)/C=C/C(C)(C)C(=O)[C@H](OC(=O)c2ccccc2)[C@H]1OC(C)=O"
operator_symbol = ">"
quantitative_readout = 2.9

[[record]]
structure_notation = "C=C1[C@H](OC(C)=O)[C@H]2[C@@H](OC(C)=O)[C@](C)(O)C[C@]2(OC(C)=O)C(=O)[C@H](C)/C=C/C(C)(C)C(=O)[C@H](OC(=O)c2ccccc2)[C@H]1OC(C)=O"
operator_symbol = "="
quantitative_readout = 29

[[record]]
structure_notation = "C=C1[C@H](OC(C)=O)[C@H]2[C@@H](OC(C)=O)[C@](C)(OC(C)=O)C[C@]2(OC(C)=O)C(=O)[C@H](C)/C=C/C(C)(C)C(=O)[C@H](OC(=O)/C(C)=C/C)[C@H]1OC(C)=O"
operator_symbol = "="
quantitative_readout = 8.3

[[record]]
structure_notation = "C=C1[C@H](OC(C)=O)[C@H]2[C@@H](OC(=O)c3ccccc3)[C@@H](C)C[C@]2(O)[C@H](O)[C@H](C)/C=C/C(C)(C)C(=O)[C@H](OC(C)=O)[C@H]1OC(C)=O"
operator_symbol = "="
quantitative_readout = 7.8

